- studyTarget: Pol-γA P1073L (exo+);Pol-γB accessory subunit (Homo sapiens;Homo sapiens, UniProt P54098;Q9UHN1 26-1239;26-485, P1073L|)
- Sequence (P54098 26-1239 P1073L, chain 1 of 2): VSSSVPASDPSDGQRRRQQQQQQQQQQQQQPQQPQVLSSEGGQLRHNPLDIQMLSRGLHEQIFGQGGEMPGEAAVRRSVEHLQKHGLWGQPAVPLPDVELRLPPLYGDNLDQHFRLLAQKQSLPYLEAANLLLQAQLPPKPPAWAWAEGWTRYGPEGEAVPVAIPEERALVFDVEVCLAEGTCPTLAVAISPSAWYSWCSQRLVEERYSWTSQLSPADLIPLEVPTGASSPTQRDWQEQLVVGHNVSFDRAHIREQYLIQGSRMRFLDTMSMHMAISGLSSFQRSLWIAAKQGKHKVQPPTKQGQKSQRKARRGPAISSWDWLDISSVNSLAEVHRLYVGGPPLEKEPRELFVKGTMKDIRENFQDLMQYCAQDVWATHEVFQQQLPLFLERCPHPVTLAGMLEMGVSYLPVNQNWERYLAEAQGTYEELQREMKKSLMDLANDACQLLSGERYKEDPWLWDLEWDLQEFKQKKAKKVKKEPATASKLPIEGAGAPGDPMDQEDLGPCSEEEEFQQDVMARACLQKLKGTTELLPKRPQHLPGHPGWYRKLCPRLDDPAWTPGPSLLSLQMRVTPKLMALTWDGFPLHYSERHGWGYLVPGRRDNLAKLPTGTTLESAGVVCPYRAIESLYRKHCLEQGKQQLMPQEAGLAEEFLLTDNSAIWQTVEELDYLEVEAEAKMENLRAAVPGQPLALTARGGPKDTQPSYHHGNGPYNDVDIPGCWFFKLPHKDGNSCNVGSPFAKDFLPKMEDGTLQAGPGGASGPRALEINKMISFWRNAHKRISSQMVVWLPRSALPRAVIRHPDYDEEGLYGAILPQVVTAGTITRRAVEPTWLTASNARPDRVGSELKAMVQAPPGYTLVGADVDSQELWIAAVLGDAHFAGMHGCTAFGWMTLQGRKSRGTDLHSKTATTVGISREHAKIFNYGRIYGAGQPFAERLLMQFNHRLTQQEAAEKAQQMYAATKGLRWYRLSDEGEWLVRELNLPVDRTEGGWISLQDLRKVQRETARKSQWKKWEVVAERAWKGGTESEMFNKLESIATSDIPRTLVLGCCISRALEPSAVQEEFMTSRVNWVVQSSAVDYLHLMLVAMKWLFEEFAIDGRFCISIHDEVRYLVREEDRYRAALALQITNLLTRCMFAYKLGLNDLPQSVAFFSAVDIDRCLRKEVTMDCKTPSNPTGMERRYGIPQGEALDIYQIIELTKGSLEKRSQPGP
- Sequence (Q9UHN1 26-485, chain 2 of 2): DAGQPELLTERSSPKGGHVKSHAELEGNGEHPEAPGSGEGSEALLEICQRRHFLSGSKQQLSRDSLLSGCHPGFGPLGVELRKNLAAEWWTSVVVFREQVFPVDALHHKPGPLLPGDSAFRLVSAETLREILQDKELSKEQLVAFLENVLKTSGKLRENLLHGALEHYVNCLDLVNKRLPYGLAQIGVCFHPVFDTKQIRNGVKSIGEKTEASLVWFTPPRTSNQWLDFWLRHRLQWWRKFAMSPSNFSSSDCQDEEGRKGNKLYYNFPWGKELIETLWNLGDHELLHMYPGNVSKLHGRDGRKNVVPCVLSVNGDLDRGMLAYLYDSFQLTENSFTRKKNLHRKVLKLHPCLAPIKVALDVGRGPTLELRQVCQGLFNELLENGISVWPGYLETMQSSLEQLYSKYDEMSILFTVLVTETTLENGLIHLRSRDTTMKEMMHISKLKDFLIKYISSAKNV
- assayInfo: pre-steady-state single-nucleotide incorporation kinetics; 12.5 mM Mg2+, dATP; 12.5 mM Mg2+, 37 °C; enzyme and DNA preincubated, rapid quench flow; buffer, salt and pH not given in the material. Table 1 WT Kd (9.9 ± 2.1 nM) is asterisked as apparently earlier data and not listed
- conditionDescription: protein: recombinant;recombinant; tags: ;; copies: 1;2; label: 5'-32P primer; 5' overhang 20 nt on template, recessed primer 3' end
quantityMeasured: Kd (µM)
Reply numerically in µM, unit not repeated.

-- ask What value of measured Kd is listed for 25-mer/45-mer primer-template (dsDNA) DNA 1: GCCTCGCAGCCGTCCAACCAACTCA DNA 2: GGACGGCATTGGATCGAGGTTGAGTTGGTTGGACGGCTGCGAGGC ?
-- reply 0.0102
